assay: collision cross section (DTIM-MS, N2); higher = larger ion; details: ion adduct: [M-H]-
Parameter: collision cross section (Å²)
Express it in Å²; write the number only.

Data request: Give the measured collision cross section for CCCCCC=CC(=O)CCc1ccc(O)c(OC)c1 [6-Shogaol]
Data returned: 167.21

Data request: Please indicate collision cross section recorded for O=C1C(O)=C([C@H]2CC[C@H](c3ccc(Cl)cc3)CC2)C(=O)c2ccccc21 [Atovaquone]
Data returned: 193.52

Data request: For O=C1C[C@@H](c2ccccc2)Oc2cc(O)cc(O)c21 [Pinocembrin] , write its collision cross section.
Data returned: 159.74

Data request: Give me measured collision cross section, please, for this compound: COc1ccc([C@@H]2CC(=O)c3c(O)cc(O[C@@H]4O[C@H](CO)[C@@H](O)[C@H](O)[C@H]4O[C@@H]4O[C@@H](C)[C@H](O)[C@@H](O)[C@H]4O)cc3O2)cc1O [Neohesperidin]
Data returned: 229.5

Data request: Report collision cross section for CCCCCCCCCCCCCCCc1cccc(O)c1C(=O)O [Ginkgolic<U+00A0>Acid<U+00A0>C15:0<U+00A0>]
Data returned: 190.92

Data request: State, in one line, measured collision cross section of CCCCCCCCC[C@H](O)CC(=O)CCc1ccc(O)c(OC)c1 [10-Gingerol]
Data returned: 188

Data request: Indicate the recorded collision cross section value for this compound: O=C(CCc1ccc(O)cc1)c1c(O)cc(O)cc1O[C@@H]1O[C@H](CO)[C@@H](O)[C@H](O)[C@H]1O [Phlorizin]
Data returned: 193.11

Data request: Name the recorded collision cross section of the item O=C(Nc1nc(-c2ccc(O)c(O)c2)c(-c2ccccc2)s1)c1ccc(O)c(O)c1 [COH29] in your answer.
Data returned: 200.74
